Kindly state MLD for each of the entries shown.
- Tested on: Mus musculus
- Protocol details: Acute lethal toxicity (minimum lethal dose; MLD, po) in mice.
- Type: organism-based
- Run parameters: in vivo

Problem: Consider the compound shown here: CCCCn1c(=O)c2ncn(CCC)c2c2ccccc21 What is its recorded MLD?
Solution: > 300 mg/kg

Problem: Consider the compound shown here: C=CCCn1c(=O)c2ncn(C)c2c2ccccc21 What is its recorded MLD?
Solution: 200 mg/kg

Problem: Consider the compound shown here: CCCCn1c(=O)c2ncn(C)c2c2ccc(Cl)cc21.Cl What is its recorded MLD?
Solution: > 300 mg/kg

Problem: Consider the compound shown here: CCCCn1c(=O)c2nc(S)n(C)c2c2ccccc21 What is its recorded MLD?
Solution: > 300 mg/kg

Problem: Consider the compound shown here: CCCCn1c(=O)c2ncn(CC)c2c2ccccc21 What is its recorded MLD?
Solution: > 300 mg/kg

Problem: Consider the compound shown here: CCCCn1c(=O)c2ncn(C)c2c2ccccc21 What is its recorded MLD?
Solution: > 300 mg/kg

Problem: Consider the compound shown here: Cn1cnc2c(=O)n(C3CCCC3)c3ccccc3c21 What is its recorded MLD?
Solution: 300 mg/kg

Problem: Consider the compound shown here: CCCCn1c(=O)c2nnn(C)c2c2ccccc21 What is its recorded MLD?
Solution: > 300 mg/kg

Problem: Consider the compound shown here: CCCn1c(=O)c2ncn(C)c2c2ccccc21 What is its recorded MLD?
Solution: 300 mg/kg

Problem: Consider the compound shown here: CCCCn1c(=O)c2ncn(C(C)C)c2c2ccccc21 What is its recorded MLD?
Solution: > 300 mg/kg

Problem: Consider the compound shown here: CCCCn1cnc2c(=O)n(CCCC)c3ccccc3c21 What is its recorded MLD?
Solution: > 300 mg/kg

Problem: Consider the compound shown here: CCCCn1c(=O)c2ncn(C)c2c2cc(C)ccc21 What is its recorded MLD?
Solution: > 300 mg/kg

# credit: ChEMBL document CHEMBL1125336
